Target: Muscarine M4 (GPCR-A-MA-ACH M4) (Homo sapiens)
Construct: expressed in transfected cells; host or cells: CHO cells
Sequence (P08173 1-479): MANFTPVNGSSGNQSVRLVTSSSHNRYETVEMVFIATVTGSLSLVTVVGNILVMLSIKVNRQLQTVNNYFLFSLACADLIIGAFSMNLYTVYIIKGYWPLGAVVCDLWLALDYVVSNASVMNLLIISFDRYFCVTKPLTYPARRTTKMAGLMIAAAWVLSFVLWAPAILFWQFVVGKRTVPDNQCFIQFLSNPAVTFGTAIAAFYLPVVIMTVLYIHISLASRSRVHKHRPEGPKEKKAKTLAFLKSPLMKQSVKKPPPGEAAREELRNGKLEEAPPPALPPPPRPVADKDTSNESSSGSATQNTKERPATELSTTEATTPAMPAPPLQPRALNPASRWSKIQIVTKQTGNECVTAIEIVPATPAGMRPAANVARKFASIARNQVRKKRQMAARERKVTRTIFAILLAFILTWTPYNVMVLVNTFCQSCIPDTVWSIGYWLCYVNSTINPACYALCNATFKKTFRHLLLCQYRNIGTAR
Assay: Muscarine M4 cell-based functional assay (CHO cells, Ca2+ - Aequorin luminescence)
Conditions: human M4, CHO cells; agonist mode, reference agonist oxotremorine; read-out: Cell funct. Musc. M4 Agonism pEC50 (converted)
Experimental: Compounds were dissolved in DMSO (10 mM) and diluted in assay buffer to test concentration. […] Cells were incubated with compound and the response indicated was measured. The results are expressed as a percent of reference agonist values and blanks in the presence of the test compound, percent stimulation for agonist mode; for the antagonist mode (test compound in the presence of reference agonist) as percent inhibition. […]
Readout: EC50 (nM)

INSERT INTO results (compound, numeric_result) VALUES
  ('CCCCSc1c[nH]nc1C1=CCCN(C)C1 [Compound 22F]', 126);

1. CN1CCC=C(c2n[nH]cc2SCCCc2ccccc2)C1 [Compound 22I]
2. CN1CCC=C(c2n[nH]cc2C#CCCCc2ccccc2)C1 [Compound 45D]
3. CCCCC=Cc1c[nH]nc1C1=CCCN(C)C1 [Compound 47A]
4. CCCCCCSc1c[nH]nc1C1=CCCN(C)C1 [Compound 22H]
In: Task for the reader: rank each entry by its EC50, from the minimum upward. Answer format: list of labels, ordered as asked.
Out: 4, 1, 3, 2

a. CCCCCSc1c[nH]nc1C1=CCCN(C)C1 [Compound 22G]
b. CCCCCCC=Cc1c[nH]nc1C1=CCCN(C)C1 [Compound 47C]
In: # min-compare on EC50 between a and b To answer, give the label that identifies your chosen option.
Out: a
(a: 316 nM, b: 631 nM)

a. CCCCCC#Cc1conc1C1=CCCN(C)C1 [Compound 70A]
b. CCCCCCSc1nc[nH]c1C1=CCCN(C)C1 [Compound 76B]
In: # min-compare on EC50 between a and b To answer, give the label that identifies your chosen option.
Out: a

1. CCCCCCCOc1c[nH]nc1C1=CCCN(C)C1 [Compound 33E]
2. CCCCCSc1nc[nH]c1C1=CCCN(C)C1 [Compound 76A]
In: # min-compare on EC50 between 1 and 2 To answer, give the label that identifies your chosen option.
Out: 1
(1: 631 nM, 2: 7940 nM)

----------
Target: Muscarine M1 (GPCR-A-MA-ACH M1) (Homo sapiens, UniProt P11229)
Construct: expressed in transfected cells; host or cells: CHO cells
Sequence (P11229 1-460): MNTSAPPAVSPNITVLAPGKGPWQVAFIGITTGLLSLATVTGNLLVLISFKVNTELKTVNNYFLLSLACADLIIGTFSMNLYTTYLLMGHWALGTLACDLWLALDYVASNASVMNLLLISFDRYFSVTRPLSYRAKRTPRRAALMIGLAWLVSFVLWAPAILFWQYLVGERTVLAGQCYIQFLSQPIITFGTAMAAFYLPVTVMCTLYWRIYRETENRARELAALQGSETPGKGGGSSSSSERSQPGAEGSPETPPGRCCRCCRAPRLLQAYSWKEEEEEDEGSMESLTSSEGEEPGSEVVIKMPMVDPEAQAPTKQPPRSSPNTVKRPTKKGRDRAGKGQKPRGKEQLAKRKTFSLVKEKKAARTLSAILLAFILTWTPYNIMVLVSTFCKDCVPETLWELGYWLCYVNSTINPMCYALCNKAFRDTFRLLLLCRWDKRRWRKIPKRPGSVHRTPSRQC
Assay: Muscarine M1 cell-based functional assay (CHO cells, Ca2+ - FLIPR Fluorimetry)
Conditions: human M1, CHO cells; agonist mode, reference agonist acetylcholine; read-out: Cell funct. Musc. M1 Agonism pEC50 (converted)
Readout: EC50 (nM)

INSERT INTO measurements (molecule, target_or_test_system, readout, unit_of_measure, numeric_result) VALUES
  ('CCCCCC#Cc1c[nH]nc1C1=CCCN(C)C1 [Compound 45B]', 'Muscarine M1 (GPCR-A-MA-ACH M1) (Homo sapiens, UniProt P11229)', 'EC50', 'nM', 126);

I. CCCCSc1c[nH]nc1C1=CCCN(C)C1 [Compound 22F]
II. CN1CCC=C(c2n[nH]cc2SCCCC(F)(F)F)C1 [Compound 22B]
In: Select one: I or II . Criterion: greater recorded EC50. To answer, give the label that identifies your chosen option.
Out: I
(I: 200 nM, II: 79.4 nM)

----------
biological target: Muscarine M4 (GPCR-A-MA-ACH M4) (Homo sapiens); construct: expressed in transfected cells; host or cells: CHO cells; assay: Muscarine M4 receptor binding, 3H-Oxotremorine; conditions: human M4, CHO cells; receptor binding, ligand 6 nM, 30 min/25° C.; read-out: RB Musc. M4 3H-Oxotremorine pKi (converted)
Readout: Ki (µM)

Known results for compounds:
INSERT INTO results (compound, readout, numeric_result) VALUES
  ('C=CCSc1c[nH]nc1C1=CCCN(C)C1 [Compound 22Q]', 'Ki', 0.126),
  ('CCCCSc1cc(C2=CCCN(C)C2)n[nH]1 [Compound 26]', 'Ki', 0.251),
  ('CCCCC=Cc1c[nH]nc1C1=CCCN(C)C1 [Compound 47A]', 'Ki', 0.251);

P. CSc1c[nH]nc1C1=CCCN(C)C1 [Compound 22A]
Q. CN1CCC=C(c2n[nH]cc2SCCCc2ccccc2)C1 [Compound 22I]
R. CCCCCSc1c[nH]nc1[C@@H]1CN2CCC[C@H]1C2 [Compound 60A]
In: Task for the reader: rank each entry by its Ki, from the minimum upward. Answer format: list of labels, ordered as asked.
Out: R, Q, P

----------
target: Muscarine M4 (GPCR-A-MA-ACH M4) (Homo sapiens, UniProt P08173); construct: expressed in transfected cells; host or cells: CHO cells; assay: Muscarine M4 cell-based functional assay (CHO cells, Ca2+ - Aequorin luminescence); conditions: human M4, CHO cells; agonist mode, reference agonist oxotremorine; read-out: Cell funct. Musc. M4 Agonism pEC50 (converted)
Readout: EC50 (nM)

Known results for compounds:
INSERT INTO results (compound, target_or_test_system, numeric_result) VALUES
  ('CCCCOc1c[nH]nc1C1=CCCN(C)C1 [Compound 33C]', 'Muscarine M4 (GPCR-A-MA-ACH M4) (Homo sapiens, UniProt P08173)', 1260),
  ('CCCCCC#Cc1c[nH]nc1C1=CCCN(C)C1 [Compound 45B]', 'Muscarine M4 (GPCR-A-MA-ACH M4) (Homo sapiens, UniProt P08173)', 316),
  ('CCOCCSc1c[nH]nc1C1=CCCN(C)C1 [Compound 22O]', 'Muscarine M4 (GPCR-A-MA-ACH M4) (Homo sapiens, UniProt P08173)', 631),
  ('CN1CCC=C(c2n[nH]cc2OCCCc2ccccc2)C1 [Compound 33A]', 'Muscarine M4 (GPCR-A-MA-ACH M4) (Homo sapiens, UniProt P08173)', 794),
  ('CCCCC=Cc1conc1C1=CCCN(C)C1 [Compound 68A]', 'Muscarine M4 (GPCR-A-MA-ACH M4) (Homo sapiens, UniProt P08173)', 794);

A. CCCCCCOc1c[nH]nc1C1=CCCN(C)C1 [Compound 33B]
B. CCCCCCC=Cc1conc1C1=CCCN(C)C1 [Compound 68B]
C. C=CCCOc1c[nH]nc1C1=CCCN(C)C1 [Compound 33D]
D. C=CCCCSc1c[nH]nc1C1=CCCN(C)C1 [Compound 22L]
E. CN1CCC=C(c2n[nH]cc2SCCC=C(F)F)C1 [Compound 22J]
In: Ordering criterion: EC50; begin with the maximum. Answer format: list of labels, ordered as asked.
Out: C, B, A, E, D
(C: 1260 nM, B: 794 nM, A: 501 nM, E: 251 nM, D: 63.1 nM)

----------
target: Muscarine M4 (GPCR-A-MA-ACH M4) (Homo sapiens, UniProt P08173); construct: expressed in transfected cells; host or cells: CHO cells; experiment: Muscarine M4 cell-based functional assay (CHO cells, Ca2+ - Aequorin luminescence); conditions: human M4, CHO cells; agonist mode, reference agonist oxotremorine; read-out: Cell funct. Musc. M4 Agonism pEC50 (converted)
Entries and their EC50 values follow.

Known results for compounds:
INSERT INTO results (compound, result) VALUES
  ('CCCCCSc1c[nH]nc1[C@@H]1CN2CCC[C@H]1C2 [Compound 60A]', '> 10 µM'),
  ('CCCCNc1c[nH]nc1C1=CCCN(C)C1', '> 10 µM'),
  ('CCCCC#Cc1c[nH]nc1C1=CCCN(C)C1 [Compound 45A]', '0.794 µM'),
  ('CCCCSc1c[nH]nc1[C@@H]1CN2CCC[C@H]1C2 (relative stereo) [Compound 60B]', '> 10 µM'),
  ('C=CCCCOc1c[nH]nc1C1=CCCN(C)C1 [Compound 33F]', '0.794 µM'),
  ('CCCCCCSc1conc1C1=CCCN(C)C1 [Compound 66B]', '0.501 µM');

In: Could you share what EC50 was measured for CN1CCC=C(c2n[nH]cc2SCCCC(F)(F)F)C1 [Compound 22B] , tested on Muscarine M4 (GPCR-A-MA-ACH M4) (Homo sapiens, UniProt P08173)?
Out: 0.501 µM

In: Could you share what EC50 was measured for CCCCCOc1c[nH]nc1C1=CCCN(C)C1 [Compound 33G] , tested on Muscarine M4 (GPCR-A-MA-ACH M4) (Homo sapiens, UniProt P08173)?
Out: 0.631 µM

In: Could you share what EC50 was measured for `CCCC(=O)Nc1c[nH]nc1C1=CCCN(C)C1` , tested on Muscarine M4 (GPCR-A-MA-ACH M4) (Homo sapiens, UniProt P08173)?
Out: > 10 µM

In: Could you share what EC50 was measured for CC(C)CCSc1c[nH]nc1C1=CCCN(C)C1 [Compound 22S] , tested on Muscarine M4 (GPCR-A-MA-ACH M4) (Homo sapiens, UniProt P08173)?
Out: > 10 µM

In: Could you share what EC50 was measured for CCSc1c[nH]nc1C1=CCCN(C)C1 [Compound 22D] , tested on Muscarine M4 (GPCR-A-MA-ACH M4) (Homo sapiens, UniProt P08173)?
Out: > 10 µM

In: Could you share what EC50 was measured for `CCCCc1c[nH]nc1C1=CCCN(C)C1` , tested on Muscarine M4 (GPCR-A-MA-ACH M4) (Homo sapiens, UniProt P08173)?
Out: > 10 µM

In: Could you share what EC50 was measured for C=CCSc1c[nH]nc1C1=CCCN(C)C1 [Compound 22Q] , tested on Muscarine M4 (GPCR-A-MA-ACH M4) (Homo sapiens, UniProt P08173)?
Out: > 10 µM

In: Could you share what EC50 was measured for CN1CCC=C(c2n[nH]cc2SCCCCCSc2c[nH]nc2C2=CCCN(C)C2)C1 [Compound 22C] , tested on Muscarine M4 (GPCR-A-MA-ACH M4) (Homo sapiens, UniProt P08173)?
Out: > 10 µM
